Experiment: Balb/C mouse pharmacokinetics (plasma, colon, ileum)
Format: in vivo
Settings: male, po, Balb/C mice, p.o. 5 mg/kg, ileum, read-out: Time to peak tmax
Attribute: Tmax
Note to self: number, then unit, no commentary.

Solved entries (count: 5):
chemicalString | Tmax
Cc1cc(Nc2nc(N[C@@H]3C[C@H]4CCC[C@@H](C3)N4CCC#N)nc3scnc23)n[nH]1 | 1 h
Cc1cc(Nc2nc(N[C@@H]3C[C@H]4CC[C@@H](C3)N4CCC#N)nc3sc(C)cc23)n[nH]1 | 1 h
Cc1cc(Nc2nc(N[C@@H]3C[C@@H]4CN(CCC#N)C[C@@H]4C3)nc3ccsc23)n[nH]1 | 3 h
Cc1cc(Nc2nc(N[C@@H]3C[C@H]4CC[C@@H](C3)N4CCC#N)nc3cc(-c4cccnc4)ccc23)n[nH]1 | 3 h
Cc1cc(Nc2nc(N[C@@H]3C[C@H]4CC[C@@H](C3)N4C(=O)CN3CCOCC3)nc3sccc23)n[nH]1 | 1 h

# input Specify reported Tmax for the compound shown: Cc1cc(Nc2nc(N[C@@H]3C[C@H]4CCC[C@@H](C3)N4C(=O)c3ccncc3)nc3sccc23)n[nH]1
# output 1 h

# input Quick one: give measured Tmax for Cc1cc(Nc2nc(N[C@@H]3C[C@H]4CCC[C@@H](C3)N4C(=O)CN3CCOCC3)nc3sccc23)n[nH]1
# output 1 h

# input Identify measured Tmax corresponding to Cc1cc(Nc2nc(N[C@@H]3C[C@H]4CC[C@@H](C3)N4CCC#N)nc3cc(N4CCOCC4)ccc23)n[nH]1
# output 1 h

====

Assay: Balb/C mouse pharmacokinetics (plasma, colon, ileum)
Assay type: in vivo
Settings: male, plasma, po, Balb/C mice, p.o. 5 mg/kg, blood, read-out: Blood concentration Cmax
So basically: is Cmax under 10 ng/mL? Then Met. Not under? Then Not met.

# input Just wondering, is Cmax of Cc1cc(Nc2nc(N[C@@H]3C[C@H]4CC[C@@H](C3)N4S(=O)(=O)N3CC(C#N)C3)nc3cc(Cl)ccc23)n[nH]1 below 10 ng/mL?
# output Met

# input Is the reported Cmax for Cc1cc(Nc2nc(N[C@@H]3C[C@H]4CC[C@@H](C3)N4CCC#N)nc3cc(N4CCOCC4)ccc23)n[nH]1 strictly below 10 ng/mL?
# output Met

# input Lab log: compare recorded Cmax with 10 ng/mL; is it strictly lower for Cc1cc(Nc2nc(N[C@@H]3C[C@H]4CCC[C@@H](C3)N4C(=O)c3ccccn3)nc3sccc23)n[nH]1 ?
# output Not met

# input Please let me know if Cc1cc(Nc2nc(N[C@@H]3C[C@H]4CC[C@@H](C3)N4CCC#N)nc3sc(C)cc23)n[nH]1 shows Cmax below 10 ng/mL.
# output Not met

# input Say whether its Cmax is strictly beneath 10 ng/mL. Entry: Cc1cc(Nc2nc(N[C@@H]3C[C@H]4CCC[C@@H](C3)N4CCC#N)nc3scnc23)n[nH]1
# output Met

# input API: query returns whether the molecule falls strictly under 10 ng/mL in Cmax. Query: Cc1cc(Nc2nc(N[C@@H]3C[C@H]4CCC[C@@H](C3)N4C(=O)CN3CCOCC3)nc3ccsc23)n[nH]1
# output Not met

# input Please check: Cmax for Cc1cc(Nc2nc(NC3CCN(CCC#N)CC3)nc3sccc23)n[nH]1 , strictly under 10 ng/mL or not?
# output Not met

====

Target: JAK3 (Homo sapiens, UniProt P52333)
Sequence (P52333 whole entry): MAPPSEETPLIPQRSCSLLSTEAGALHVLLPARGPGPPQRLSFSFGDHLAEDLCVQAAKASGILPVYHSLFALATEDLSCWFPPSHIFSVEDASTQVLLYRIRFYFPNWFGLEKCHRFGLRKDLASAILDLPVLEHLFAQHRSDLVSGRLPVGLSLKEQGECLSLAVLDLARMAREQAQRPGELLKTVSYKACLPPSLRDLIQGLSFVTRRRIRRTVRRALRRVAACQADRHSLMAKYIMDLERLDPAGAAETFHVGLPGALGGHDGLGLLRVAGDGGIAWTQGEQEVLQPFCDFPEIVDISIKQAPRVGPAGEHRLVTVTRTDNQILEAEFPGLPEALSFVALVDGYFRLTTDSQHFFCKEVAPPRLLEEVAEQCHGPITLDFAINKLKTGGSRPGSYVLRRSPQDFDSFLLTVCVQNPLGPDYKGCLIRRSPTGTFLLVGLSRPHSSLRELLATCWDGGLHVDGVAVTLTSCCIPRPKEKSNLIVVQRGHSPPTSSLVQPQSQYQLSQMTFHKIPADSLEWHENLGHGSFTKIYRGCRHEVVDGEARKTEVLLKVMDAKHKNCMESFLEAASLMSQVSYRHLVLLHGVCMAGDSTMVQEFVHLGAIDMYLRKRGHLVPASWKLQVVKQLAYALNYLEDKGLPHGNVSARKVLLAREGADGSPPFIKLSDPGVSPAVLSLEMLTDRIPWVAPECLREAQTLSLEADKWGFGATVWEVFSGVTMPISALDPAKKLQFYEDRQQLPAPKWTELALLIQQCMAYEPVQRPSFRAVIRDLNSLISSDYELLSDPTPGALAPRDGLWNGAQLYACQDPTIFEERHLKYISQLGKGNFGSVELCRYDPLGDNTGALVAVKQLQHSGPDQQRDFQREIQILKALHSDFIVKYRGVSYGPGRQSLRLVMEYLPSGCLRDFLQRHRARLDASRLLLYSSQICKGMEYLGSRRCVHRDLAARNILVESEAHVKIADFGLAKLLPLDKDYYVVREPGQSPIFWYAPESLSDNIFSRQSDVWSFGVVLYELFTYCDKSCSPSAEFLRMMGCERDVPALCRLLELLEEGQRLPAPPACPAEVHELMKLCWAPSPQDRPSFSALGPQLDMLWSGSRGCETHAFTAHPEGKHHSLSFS
Assign labels as follows, please: yes for IC50 below 7 nM; no for IC50 equal to or exceeding 7 nM.

chemicalString | assaySystem | categoryLabel
Cc1cc(Nc2nc(N[C@@H]3C[C@H]4CC[C@@H](C3)N4CCC#N)nc3[nH]ccc23)n[nH]1 | JAK3 (Homo sapiens, UniProt P52333) | yes
Cc1cc(Nc2nc(N[C@@H]3C[C@H]4CC[C@@H](C3)N4S(=O)(=O)c3cccnc3)nc3sccc23)n[nH]1 | JAK3 (Homo sapiens, UniProt P52333) | no
Cc1cc(Nc2nc(N(C)[C@@H]3C[C@H]4CCC[C@@H](C3)N4C(=O)CN3CCN(C)CC3)nc3sccc23)n[nH]1 | JAK3 (Homo sapiens, UniProt P52333) | no
Cc1cnc(Nc2cc3ncccc3c(N[C@@H]3C[C@H]4CC[C@@H](C3)N4CCC#N)n2)s1 | JAK3 (Homo sapiens, UniProt P52333) | yes

Please look at the following molecule next.
# input I'd appreciate it if you could check whether CNCC(=O)N1[C@@H]2CCC[C@H]1C[C@H](Nc1nc(Nc3cc(C)[nH]n3)c3ccsc3n1)C2 has IC50 smaller than 7 nM.
# output yes

====

Biological target: JAK1 (Homo sapiens, UniProt P23458)
Sequence (P23458 whole entry): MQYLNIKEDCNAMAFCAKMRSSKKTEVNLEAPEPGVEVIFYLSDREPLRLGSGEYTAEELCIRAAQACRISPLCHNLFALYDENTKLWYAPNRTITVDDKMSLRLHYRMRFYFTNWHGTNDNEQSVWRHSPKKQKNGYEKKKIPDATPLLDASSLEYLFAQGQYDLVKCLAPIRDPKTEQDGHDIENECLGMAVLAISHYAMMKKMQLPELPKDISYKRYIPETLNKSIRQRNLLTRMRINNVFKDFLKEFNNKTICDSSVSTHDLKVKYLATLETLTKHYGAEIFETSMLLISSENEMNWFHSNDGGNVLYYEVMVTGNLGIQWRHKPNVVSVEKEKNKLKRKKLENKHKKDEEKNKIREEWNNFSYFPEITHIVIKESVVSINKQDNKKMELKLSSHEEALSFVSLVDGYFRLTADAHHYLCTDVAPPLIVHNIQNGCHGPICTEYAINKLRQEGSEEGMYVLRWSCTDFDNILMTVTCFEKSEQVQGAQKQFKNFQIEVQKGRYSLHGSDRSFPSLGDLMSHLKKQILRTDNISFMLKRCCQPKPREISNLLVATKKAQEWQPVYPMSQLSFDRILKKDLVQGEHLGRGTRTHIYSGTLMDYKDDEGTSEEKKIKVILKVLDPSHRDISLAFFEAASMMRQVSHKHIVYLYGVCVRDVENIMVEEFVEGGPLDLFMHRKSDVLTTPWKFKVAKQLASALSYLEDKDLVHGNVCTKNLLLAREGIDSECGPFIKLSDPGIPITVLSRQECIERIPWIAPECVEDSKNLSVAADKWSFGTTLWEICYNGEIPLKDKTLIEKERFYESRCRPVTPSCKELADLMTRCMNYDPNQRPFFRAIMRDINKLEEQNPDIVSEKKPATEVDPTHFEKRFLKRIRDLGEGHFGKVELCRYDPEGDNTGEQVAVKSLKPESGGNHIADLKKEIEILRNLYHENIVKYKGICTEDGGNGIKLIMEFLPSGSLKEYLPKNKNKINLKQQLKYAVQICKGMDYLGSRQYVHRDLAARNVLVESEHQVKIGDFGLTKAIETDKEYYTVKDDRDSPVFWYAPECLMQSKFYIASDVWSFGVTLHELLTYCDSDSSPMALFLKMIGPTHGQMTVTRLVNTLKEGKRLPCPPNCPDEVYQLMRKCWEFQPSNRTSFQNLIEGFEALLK
Response field label takes YES when IC50 is strictly below 0.3 nM and NO in all other cases.

Some solved entries appear below for comparison.
chemicalString | assaySystem | categoryLabel
Cc1cc(Nc2nc(N[C@@H]3C[C@H]4CCC[C@@H](C3)N4CCC#N)nc3scnc23)n[nH]1 | JAK1 (Homo sapiens, UniProt P23458) | NO
Cc1cc(Nc2nc(O[C@@H]3C[C@H]4CC[C@@H](C3)N4CCC#N)nc3sccc23)n[nH]1 | JAK1 (Homo sapiens, UniProt P23458) | YES
Cc1cc(Nc2nc(N[C@@H]3C[C@H]4CCC[C@@H](C3)N4Cc3nccn3C)nc3sccc23)n[nH]1 | JAK1 (Homo sapiens, UniProt P23458) | NO
Cc1cc(Nc2nc(N[C@@H]3C[C@H]4CC[C@@H](C3)N4CCC#N)c3cccn3n2)n[nH]1 | JAK1 (Homo sapiens, UniProt P23458) | NO

# input In plain terms, does N#CCCN1[C@@H]2CC[C@H]1C[C@H](Nc1nc(Nc3cnccn3)cc3ncccc13)C2 come in under 0.3 nM for IC50?
# output NO

# input Strictly below 0.3 nM in IC50? Cc1cc(Nc2nc(N[C@@H]3C[C@H]4CC[C@@H](C3)N4S(=O)(=O)c3ccccn3)nc3sccc23)n[nH]1
# output NO

# input Hello, I'm reviewing records and need to know if IC50 of Cc1cc(Nc2nc(N[C@@H]3C[C@H]4CC[C@@H](C3)N4CC(=O)N(C)C)nc3ccsc23)n[nH]1 is below 0.3 nM. Could you check?
# output NO

# input Is it true that IC50 reported for Cc1cc(Nc2nc(N[C@@H]3C[C@H]4CC[C@@H](C3)N4C(=O)CN(C)C)nc3ccsc23)n[nH]1 is less than 0.3 nM?
# output NO

# input IC50 strictly < 0.3 nM for this compound? O=C(C(F)F)N1[C@@H]2CC[C@H]1C[C@H](Nc1nc(Nc3ncc(CO)s3)cc3ncccc13)C2
# output YES

# input For Cc1cc(Nc2nc(N[C@@H]3C[C@H]4CCC[C@@H](C3)N4C(=O)c3cn(C)cn3)nc3sccc23)n[nH]1 , is the recorded IC50 below the cut-off of 0.3 nM?
# output YES

# input Consider Cc1cc(Nc2nc(N[C@@H]3C[C@H]4CC[C@@H](C3)N4S(=O)(=O)N3CC(C#N)C3)nc3cc(F)ccc23)n[nH]1 . Does its IC50 lie strictly below 0.3 nM?
# output YES

# input Consider the compound Cn1cnc(Nc2cc3ncccc3c(N[C@@H]3C[C@H]4CC[C@@H](C3)N4CCC#N)n2)c1 . Is its IC50 strictly less than 0.3 nM?
# output NO

# input Please determine if Cc1cc(Nc2nc(N[C@@H]3C[C@H]4CCC[C@@H](C3)N4S(=O)(=O)c3nccn3C)nc3sccc23)n[nH]1 is below 0.3 nM in terms of IC50.
# output NO

# input Problem: For the compound Cc1cc(Nc2nc(N[C@@H]3C[C@H]4CC[C@@H](C3)N4S(=O)(=O)N3CC(C#N)C3)nc3ccsc23)n[nH]1 , is IC50 under 0.3 nM?
# output YES

# input Dear colleague, could you confirm whether IC50 of CCNCC(=O)N1[C@@H]2CC[C@H]1C[C@H](Nc1nc(Nc3cc(C)[nH]n3)c3ccsc3n1)C2 falls below 0.3 nM? Thanks.
# output NO

====

Test: Balb/C mouse pharmacokinetics (plasma, colon, ileum)
Assay type: in vivo
Details: male, po, Balb/C mice, p.o. 5 mg/kg, ileum, read-out: Curve area AUC0-∞
propertyName: log10 AUC(0-inf) (log10 of the value in ng·h/mL)
Recorded AUC(0-inf) (log10, ng·h/mL)

Recorded results for 5 molecules are shown here.
chemicalString | log10 AUC(0-inf)
Cc1cc(Nc2nc(N[C@@H]3C[C@H]4CC[C@@H](C3)N4CCC#N)nc3cc(N4CCOCC4)ccc23)n[nH]1 | 4.71
Cc1cc(Nc2nc(N[C@@H]3C[C@H]4CC[C@@H](C3)N4S(=O)(=O)N3CC(C#N)C3)nc3cc(Cl)ccc23)n[nH]1 | 4.69
Cc1cc(Nc2nc(NC3CCN(CCC#N)CC3)nc3sccc23)n[nH]1 | 4.55
Cc1cc(Nc2nc(N[C@@H]3C[C@H]4CCC[C@@H](C3)N4CCC#N)nc3scnc23)n[nH]1 | 3.80
Cc1cc(Nc2nc(N[C@@H]3C[C@H]4CC[C@@H](C3)N4CCC#N)nc3cc(Br)ccc23)n[nH]1 | 5.24

Switching to the query record.
# input Give log10 AUC(0-inf) for the following molecule: Cc1cc(Nc2nc(N[C@@H]3C[C@H]4CCC[C@@H](C3)N4S(=O)(=O)N3CC(C#N)C3)nc3sccc23)n[nH]1
# output 4.56
